system: Candida albicans; assay: Antifungal broth macrodilution susceptibility testing (MIC/MFC), yeast; format: cell-based; settings: Candida albicans, reference strain C. albicans A39; read-out: C. albicans MFC
Please provide measured log10 MFC for the entries that follow.
Values are log10 of MFC in µg/mL.

For orientation, consider the following solved cases.
[[record]]
record_smiles = "Cc1ccc(N=Nc2ccc(-c3ccc(-c4ccc(N=Nc5ccc(C)cn5)cc4C)o3)c(C)c2)nc1"
system_name = "Candida albicans"
val = 1.00

[[record]]
record_smiles = "Cc1cc(NC(=N)N)ccc1-c1ccc(-c2ccc(NC(=N)N)cc2C)o1.Cl.Cl"
system_name = "Candida albicans"
val = 0.32

[[record]]
record_smiles = "Cc1cc(NC(=N)c2ccccc2)ccc1-c1ccc(-c2ccc(NC(=N)c3ccccc3)cc2C)o1"
system_name = "Candida albicans"
val = 0.80

[[record]]
record_smiles = "Cl.Cl.N=C(N)Nc1ccc(-c2ccc(-c3ccc(NC(=N)N)cc3)o2)cc1"
system_name = "Candida albicans"
val = 1.40

[[record]]
record_smiles = "Cl.Cl.N=C(N)Nc1ccc(-c2ccc(-c3ccc(NC(=N)N)cc3Cl)o2)c(Cl)c1"
system_name = "Candida albicans"
val = 2.00


Batch: log10 MFC for all items listed.
1. Cl.Cl.N=C(N)Nc1ccc(-c2ccc(-c3ccc(NC(=N)N)cc3C(F)(F)F)o2)c(C(F)(F)F)c1
2. COc1cc(NC(=N)N)ccc1-c1ccc(-c2ccc(NC(=N)N)cc2OC)o1.Cl.Cl
3. Cl.Cl.N=C(Nc1ccc(-c2ccc(-c3ccc(NC(=N)c4ccccc4)cc3)o2)cc1)c1ccccc1

Response:
1.00
2.00
1.70

* * *

Provide the recorded MIC for the entries that follow.
test system: M. tuberculosis H37Rv

Hi, could you look up MIC for each item in my list?
1. COc1cc(N=Nc2ccccn2)ccc1-c1ccc(-c2ccc(N=Nc3ccccn3)cc2OC)o1
2. Cc1ccc(C(=N)Nc2ccc(-c3ccc(-c4ccc(NC(=N)c5ccc(C)cc5)cc4)o3)cc2)cc1.Cl.Cl
3. c1cc(-c2ccc(-c3ccc(N=NC4CCCCC4)cc3)o2)ccc1N=NC1CCCCC1
4. Cl.Cl.N=C(N)Nc1ccc(-c2ccc(-c3ccc(NC(=N)N)cc3Cl)o2)c(Cl)c1
5. Cl.Cl.N=C(N)Nc1ccc(-c2ccc(-c3ccc(NC(=N)N)cc3C(F)(F)F)o2)c(C(F)(F)F)c1
6. Cc1cc(NC(=N)N)ccc1-c1ccc(-c2ccc(NC(=N)N)cc2C)o1.Cl.Cl
7. COc1cc(NC(=N)N)ccc1-c1ccc(-c2ccc(NC(=N)N)cc2OC)o1.Cl.Cl

Response:
1: 1 to 2 µg/mL; 2: ≤ 6.25 µg/mL; 3: ≤ 6.25 µg/mL; 4: 4 µg/mL; 5: 8 µg/mL; 6: 1 to 3 µg/mL; 7: 16 µg/mL

Lab note: Cc1ccc(N=Nc2ccc(-c3ccc(-c4ccc(N=Nc5ccc(C)cn5)cc4C)o3)c(C)c2)nc1 gave MIC of 1 to 2 µg/mL

* * *

Would you mind telling me the reported melting point of each entry?
Where a name gives a salt, the structure may show the parent alone.

Sample answers from the record:
[[record]]
compound = "Br.Br.CC(=N)Nc1ccc(-c2ccc(-c3ccc(NC(C)=N)cc3C)o2)c(C)c1"
outcome_measure = "melting point"
val = "282.5 to 284 °C (dec.)"

[[record]]
compound = "Cc1ccc(N=Nc2ccc(-c3ccc(-c4ccc(N=Nc5ccc(C)cn5)cc4C)o3)c(C)c2)nc1 (as salt: hydrochloride)"
outcome_measure = "melting point"
val = "156 to 158 °C"

[[record]]
compound = "Clc1cc(N=Nc2ccccn2)ccc1-c1ccc(-c2ccc(N=Nc3ccccn3)cc2Cl)o1 (as salt: hydrochloride)"
outcome_measure = "melting point"
val = "189 to 190 °C"


Batch request: melting point per item, same order as input.
1. c1ccc(N=Nc2ccc(-c3ccc(-c4ccc(N=Nc5ccccn5)cc4)o3)cc2)nc1 (as salt: hydrochloride) (hydrate or solvate)
2. COc1cc(N=Nc2ccccn2)ccc1-c1ccc(-c2ccc(N=Nc3ccccn3)cc2OC)o1 (as salt: hydrochloride)
3. Cl.Cl.N=C(N)Nc1ccc(-c2ccc(-c3ccc(NC(=N)N)cc3Cl)o2)c(Cl)c1
4. Cc1cc(NC(=N)N)ccc1-c1ccc(-c2ccc(NC(=N)N)cc2C)o1.Cl.Cl
5. Cc1ccc(C(=N)Nc2ccc(-c3ccc(-c4ccc(NC(=N)c5ccc(C)cc5)cc4)o3)cc2)cc1.Cl.Cl
6. Br.Br.CC(=N)Nc1ccc(-c2ccc(-c3ccc(NC(C)=N)cc3)o2)cc1

Response:
["221 to 223 °C", "196 to 197 °C", "300 to 304 °C (dec.)", "265 to 271 °C (dec.)", "348 to 350.5 °C", "307 to 309.5 °C (dec.)"]

Below are some compounds; for each one, tell me its melting point.
1. N=C(Nc1ccc(-c2ccc(-c3ccc(NC(=N)c4ccccc4)cc3)s2)cc1)c1ccccc1 (hydrate or solvate)
2. Cc1cc(N=Nc2ccc3ccccc3n2)ccc1-c1ccc(-c2ccc(N=Nc3ccc4ccccc4n3)cc2C)o1 (as salt: hydrochloride)

Response:
284 to 286 °C (dec.)
168 to 169 °C
